- TEST SYSTEM: CDK2 (human)
- MEASUREMENT NOTES: Cell-Based Assay
- CONDITION DETAILS: sw480
READOUT: IC50

Some entries whose results are on file:
Which IC50 value belongs to O=C(c1ccc2c(c1)C(c1ccccc1F)=Nc1c[nH]nc1N2)N1CCOCC1 ? 10 to 1000 nM

# IC50 lookup, item O=[N+]([O-])c1ccc2c(c1)C(c1ccccc1Cl)=Nc1c(n[nH]c1-c1cccnc1)N2 10000 to 30000 nM

Query: IC50; subject: Cc1[nH]nc2c1N=C(c1ccccc1C(F)(F)F)c1cc([N+](=O)[O-])ccc1N2 10 to 1000 nM

Endpoint output: IC50 of Cc1[nH]nc2c1N=C(c1ccccc1Cl)c1cc([N+](=O)[O-])ccc1N2 . Value? 10 to 1000 nM

Moving on to another molecule below.
# query: IC50 of entry O=[N+]([O-])c1ccc2c(c1)C(c1ccccc1Cl)=Nc1c(n[nH]c1CCc1ccccc1)N2 10000 to 30000 nM
